- Test system: DLD-1
- assay.method.text: NCI tumour cell line growth inhibition, 48 h
Active and inactive are the calls of the source. Cut-off read from the data, not from the text of the source: active = GI50 up to about 1.1 µM and inactive = higher.
Labels: True = active, False = inactive

[[record]]
compound = "CC1C=CC(C(N)C(=O)O)O1 (configuration not stated)"
class_name = "False"

[[record]]
compound = "N/C(=N\\O)N/N=C\\c1ccccc1O"
class_name = "False"

[[record]]
compound = "CCN(CC)CCNC(=O)c1cccc2cc3ccccc3nc12"
class_name = "False"

[[record]]
compound = "CC1CCC(=O)NCCCCC(=O)N1 (configuration not stated)"
class_name = "False"

[[record]]
compound = "COC(=O)[C@@H](O)[C@](O)(CCC(C)C)C(=O)O[C@@H]1C(OC)=C[C@]23CCCN2CCc2cc4c(cc2[C@H]13)OCO4"
class_name = "True"

[[record]]
compound = "COc1ccc(-c2c(C3=NCCCN3)nnn2-c2ccccc2)cc1"
class_name = "False"

[[record]]
compound = "CC(C)(C)C1CCC2c3c([nH]c4ccccc34)C3C(=O)N(c4ccccc4)C(=O)C3C2C1 (configuration not stated)"
class_name = "False"


----------
- Tested on: HT-29
- assay.method.text: NCI tumour cell line growth inhibition, 48 h
Calls of active or inactive are those of the source. No stated cut-off is given here; in the data, active = GI50 up to about 1.1 µM and inactive = higher.
Classes used: 1 (yes) for active, 0 (no) for inactive

[[record]]
molecule = "COc1cc2c(cc1OC)-c1cc3cc(OC)c(OC)cc3c(C)[n+]1CC2.O=C([O-])CS(=O)(=O)O"
class_name = "0 (no)"

[[record]]
molecule = "CCc1cccc(C(C)CC)c1NC(=O)CC1C(=O)Nc2ccccc2S1(=O)=O (stereo unspecified)"
class_name = "0 (no)"

[[record]]
molecule = "COc1ccc(NC(=S)c2ccoc2C)cc1CC(=O)OC(C)C"
class_name = "0 (no)"

[[record]]
molecule = "O=c1oc2cc(O)ccc2c2[nH]c3cc(O)ccc3c12"
class_name = "0 (no)"

[[record]]
molecule = "CCC(C)C(C(=O)N/N=C1/SCC(=O)N1C)C(=O)N/N=C1/SCC(=O)N1C (stereo unspecified)"
class_name = "0 (no)"

[[record]]
molecule = "O=C(Nc1ccc([N+](=O)[O-])cc1)C1C(=O)C(=O)N(c2ccc([N+](=O)[O-])cc2)C1=O (stereo unspecified)"
class_name = "0 (no)"

[[record]]
molecule = "CC12C(=O)CC(CC1=O)C2(C)C"
class_name = "0 (no)"

[[record]]
molecule = "CCOC(OCC)[C@@H]1C[C@@H]2N(O[C@H](OC3CCCC3(c3ccccc3)c3ccccc3)[C@H](OC(C)=O)[C@@]2(CC)Cc2ccc(OC)c(OC)c2)O1 (stereo partly specified)"
class_name = "0 (no)"

[[record]]
molecule = "O=C(O)c1c[nH]cc1C(=O)O"
class_name = "0 (no)"

[[record]]
molecule = "O=C(N/C(=C\\c1c(O)ccc2ccccc12)c1nc2ccccc2[nH]1)c1ccccc1"
class_name = "0 (no)"

[[record]]
molecule = "OCc1ccc2[n+](c1)CCC1c3ccccc3NC21 (stereo unspecified)"
class_name = "0 (no)"

[[record]]
molecule = "COC(=O)[C@@H](O)[C@](O)(CCC(C)C)C(=O)O[C@@H]1C(OC)=C[C@]23CCCN2CCc2cc4c(cc2[C@H]13)OCO4"
class_name = "1 (yes)"

[[record]]
molecule = "COc1cc(OC)c2c(=O)cc(-c3ccc(OC)c(OC)c3OC)oc2c1"
class_name = "0 (no)"

[[record]]
molecule = "CCn1c(SCC(=O)N/N=C2\\SCC(=O)N2c2ccc(C)cc2)nc2ccccc2c1=O"
class_name = "0 (no)"

[[record]]
molecule = "CCN(CC)C(=O)C(C)n1cc(C)c(=O)[nH]c1=O (stereo unspecified)"
class_name = "0 (no)"

[[record]]
molecule = "COc1cc2c(cc1OC)C1(c3ccc(Cl)cc3)ON=C(c3ccccc3)N1CS2 (stereo unspecified)"
class_name = "0 (no)"

[[record]]
molecule = "COc1cccc(NC(=O)CC(=O)Nc2cccc(OC)c2)c1"
class_name = "0 (no)"

[[record]]
molecule = "COC(=O)N/N=c1\\cc(C(=O)Nc2ccc(C)c(C)c2)oc2cc(O)ccc12"
class_name = "0 (no)"

[[record]]
molecule = "O=[N+]([O-])c1nccn1CC1OC(n2ccnc2[N+](=O)[O-])C(O)C(O)C1O (stereo unspecified)"
class_name = "0 (no)"

[[record]]
molecule = "O=[N+]([O-])c1cc(/C=N\\NS(=O)(=O)c2ccc(Cl)cc2)c(O)c([N+](=O)[O-])c1"
class_name = "0 (no)"

[[record]]
molecule = "c1ccc(-c2cc(-c3cc(-c4ccccc4)no3)on2)cc1"
class_name = "0 (no)"

[[record]]
molecule = "O=P1(C(O)/C=C/c2ccccc2)N(Cc2ccccc2)[C@H](c2ccccc2)[C@@H](c2ccccc2)N1Cc1ccccc1 (stereo partly specified)"
class_name = "0 (no)"

[[record]]
molecule = "COc1cc2ccc1OCc1cccc(n1)COc1ccc(cc1OC)/C=N\\c1ccc(cc1)-c1ccc(cc1)/N=C\\2"
class_name = "0 (no)"

[[record]]
molecule = "O=[N+]([O-])C(C=C(n1nnc2ccccc21)n1nnc2ccccc21)=C(n1nnc2ccccc21)n1nnc2ccccc21"
class_name = "0 (no)"

[[record]]
molecule = "C1=CC(=[N+]2N=C(c3ccccc3)CC2c2ccccc2)C=CC1=C1SC(c2ccccc2)(c2ccccc2)c2ccccc21.[O-][Cl+3]([O-])([O-])[O-] (stereo unspecified)"
class_name = "0 (no)"

[[record]]
molecule = "CCOC(=O)/C=C(/C(=O)OCC)n1cc(C)c(=O)n(Cc2cnnn2CCCCOC(C)=O)c1=O"
class_name = "0 (no)"

[[record]]
molecule = "COc1cc(/C=C(\\OC(C)=O)c2ccc3c(c2)OCO3)cc(OC)c1OC"
class_name = "0 (no)"

[[record]]
molecule = "O=S1(=O)OCc2ccccc21"
class_name = "0 (no)"

[[record]]
molecule = "Cc1c(C)c2ccc(O)cc2[nH]c1=O"
class_name = "0 (no)"

[[record]]
molecule = "CS(=O)(=O)c1nc(-c2cc3c(c(S(C)(=O)=O)n2)CCC3)cc2c1CCCC2"
class_name = "0 (no)"

[[record]]
molecule = "COc1cc(N(CCC#N)CCC#N)ccc1C(=N/NC(=O)c1cc(Br)ccc1O)/N=N/c1ccccc1"
class_name = "0 (no)"


----------
- System: NCI-H226
- assay.method.text: NCI tumour cell line growth inhibition, 48 h
Active and inactive are the calls of the source. Rule as the data show it: active = GI50 up to about 1.1 µM and inactive = higher. Starred links: 1 amine or outer side, 2 acyl side, 3 side chain; linkers in the order of their positions; H or OH if unused. Non-standard residues stand in square brackets, D forms with d. Residues, ends and D or L forms follow the SMILES beside them. X4 = C[C@H](N[*:1])C(=O)C(C)(C)C(=O)[*:2]; Hmpa(2S,3S) = CC[C@H](C)[C@H](O)C(=O)O; NMeY = CN[C@@H](Cc1ccc(O)cc1)C(=O)O; NMeL = CN[C@@H](CC(C)C)C(=O)O; NMeV = CN[C@H](C(=O)O)C(C)C; βAla = NCCC(=O)O
property.label: GI50

[[record]]
compound = "CC[C@H](C)[C@@H]1OC(=O)CCNC(=O)[C@@H](C)NC(=O)C(C)(C)C(=O)[C@H](C)NC(=O)[C@H](Cc2ccc(OC)cc2)N(C)C(=O)[C@H](C(C)C)N(C)C(=O)CNC(=O)[C@H](CC(C)C)N(C)C(=O)CNC1=O (cyclo(G[NMeL]G[NMeV][NMeY](Me)[X4][dA][βAla][Hmpa(2S,3S)]))"
reported = "5.92 µM (inactive)"

[[record]]
compound = "Oc1ccc(Cn2c(-c3ccc(O)cc3)nc3ccccc32)cc1"
reported = "> 100 µM (inactive)"

[[record]]
compound = "O=C(c1cc2ccccc2o1)N(Cc1ccccc1)c1ccccc1"
reported = "15.6 µM (inactive)"

[[record]]
compound = "COc1cc(OC)c(/C=C/c2cnc3ccccc3n2)c(OC)c1"
reported = "> 10 µM (inactive)"

[[record]]
compound = "COc1ccc(/C=C2\\CC3C4CC=C5C[C@@H](N6CCCC6)CC[C@]5(C)C4CC[C@]3(C)[C@H]2O)cc1OC (stereo partly specified)"
reported = "10.5 µM (inactive)"

[[record]]
compound = "C/C=C1\\C=C(OC)CN(CCc2c[nH]c3ccccc23)C1"
reported = "27.2 µM (inactive)"

[[record]]
compound = "O=C(O)C(Cc1c[nH]c2ccccc12)N1C(=O)c2ccccc2C1=O (stereo unspecified)"
reported = "> 100 µM (inactive)"

[[record]]
compound = "COc1cccc(O)c1-c1cc(=O)c2c(O)c(OC)c(OC)c(OC)c2o1"
reported = "47.2 µM (inactive)"

[[record]]
compound = "COc1cc2ccc1OCc1cccc(n1)COc1ccc(cc1OC)/C=N\\c1ccc(cc1)-c1ccc(cc1)/N=C\\2"
reported = "> 100 µM (inactive)"

[[record]]
compound = "O=C(O)c1c[nH]cc1C(=O)O"
reported = "> 100 µM (inactive)"

[[record]]
compound = "CC(=O)C1C(=O)C(C(C)=O)C2C3C=CC(C3)C12 (stereo unspecified)"
reported = "> 100 µM (inactive)"

[[record]]
compound = "N#Cc1c(N)nc2c(/N=N\\c3ccccc3)c(N)nn2c1Nc1ccccc1"
reported = "25.7 µM (inactive)"

[[record]]
compound = "CCOC(CN=C=S)OCC"
reported = "> 10 µM (inactive)"

[[record]]
compound = "N#CC1(C#N)C=CC(=C2OCC3CCCN23)C=C1 (stereo unspecified)"
reported = "> 100 µM (inactive)"

[[record]]
compound = "O=C(C[n+]1ccccc1)NNC(=O)/C(=C/c1ccc2c(c1)OCO2)NC(=O)c1ccccc1"
reported = "36.7 µM (inactive)"

[[record]]
compound = "CN(C)CCN(C)P12(Oc3ccccc3O1)Oc1c(Cl)c(Cl)c(Cl)c(Cl)c1O2"
reported = "> 100 µM (inactive)"

[[record]]
compound = "O=C(O)CCC(NC(=O)c1ccc(CNc2nc3ccccc3nc2C(=O)O)cc1)C(=O)O (stereo unspecified)"
reported = "> 100 µM (inactive)"

[[record]]
compound = "COC(=O)c1csc(-c2nc(CCNC(=O)OC(C)(C)C)sc2Br)n1"
reported = "> 100 µM (inactive)"

[[record]]
compound = "[N-]=[N+]=CC(=O)OC1Cc2ccccc2C1"
reported = "> 93.3 µM (inactive)"

[[record]]
compound = "O=C(Nc1ccc([N+](=O)[O-])cc1)C1C(=O)C(=O)N(c2ccc([N+](=O)[O-])cc2)C1=O (stereo unspecified)"
reported = "> 100 µM (inactive)"

[[record]]
compound = "CCOC(=O)c1c(NC(=S)NCc2ccccc2)sc2c1CCN(C)C2"
reported = "> 100 µM (inactive)"

